// values below are reported residual activity
Target: AKT1 (human)
Test: Free Choice Kinase Assay Projects, Flashplate
Conditions: compound 10.0 µM; ATP 3 µM
Reported Metric: residual activity

1. CC(Nc1cc(-c2nc(SCc3ccccc3)[nH]c2-c2ccc(F)cc2)ccn1)c1ccccc1 (stereo not given) :: 66%
2. N#CCSc1nc(-c2ccncc2)c(-c2ccc(F)cc2)[nH]1 :: 110%
3. CSc1nc(-c2ccnc(NC(=O)C3CCCC3)c2)c(-c2ccc(F)cc2)n1C :: 100%
4. CSc1nc(-c2ccnc(N(C(=O)C3CC3)C(=O)C3CC3)c2)c(-c2ccc(F)cc2)n1C :: 122%
5. COc1ccc(C(=O)Nc2cc(-c3nc(SC)n(C)c3-c3ccc(F)cc3)ccn2)cc1 :: 113%
6. CSc1nc(-c2ccnc(NC(C)=O)c2)c(-c2ccc(F)cc2)n1C :: 154%
7. CSc1ccc(CSc2nc(-c3ccncc3)c(-c3ccc(F)cc3)[nH]2)cc1 :: 100%
8. Fc1ccc(-c2[nH]c(SCc3cccc4ccccc34)nc2-c2ccncc2)cc1 :: 60%
9. Fc1ccc(-c2[nH]c(SCCCc3ccccc3)nc2-c2ccncc2)cc1 :: 98%
10. Fc1ccc(-c2[nH]c(/C=C/c3ccccc3)nc2-c2ccncc2)cc1 :: 75%

###

Target: UniProtKB P08069
Sequence (P08069 whole entry, looked up): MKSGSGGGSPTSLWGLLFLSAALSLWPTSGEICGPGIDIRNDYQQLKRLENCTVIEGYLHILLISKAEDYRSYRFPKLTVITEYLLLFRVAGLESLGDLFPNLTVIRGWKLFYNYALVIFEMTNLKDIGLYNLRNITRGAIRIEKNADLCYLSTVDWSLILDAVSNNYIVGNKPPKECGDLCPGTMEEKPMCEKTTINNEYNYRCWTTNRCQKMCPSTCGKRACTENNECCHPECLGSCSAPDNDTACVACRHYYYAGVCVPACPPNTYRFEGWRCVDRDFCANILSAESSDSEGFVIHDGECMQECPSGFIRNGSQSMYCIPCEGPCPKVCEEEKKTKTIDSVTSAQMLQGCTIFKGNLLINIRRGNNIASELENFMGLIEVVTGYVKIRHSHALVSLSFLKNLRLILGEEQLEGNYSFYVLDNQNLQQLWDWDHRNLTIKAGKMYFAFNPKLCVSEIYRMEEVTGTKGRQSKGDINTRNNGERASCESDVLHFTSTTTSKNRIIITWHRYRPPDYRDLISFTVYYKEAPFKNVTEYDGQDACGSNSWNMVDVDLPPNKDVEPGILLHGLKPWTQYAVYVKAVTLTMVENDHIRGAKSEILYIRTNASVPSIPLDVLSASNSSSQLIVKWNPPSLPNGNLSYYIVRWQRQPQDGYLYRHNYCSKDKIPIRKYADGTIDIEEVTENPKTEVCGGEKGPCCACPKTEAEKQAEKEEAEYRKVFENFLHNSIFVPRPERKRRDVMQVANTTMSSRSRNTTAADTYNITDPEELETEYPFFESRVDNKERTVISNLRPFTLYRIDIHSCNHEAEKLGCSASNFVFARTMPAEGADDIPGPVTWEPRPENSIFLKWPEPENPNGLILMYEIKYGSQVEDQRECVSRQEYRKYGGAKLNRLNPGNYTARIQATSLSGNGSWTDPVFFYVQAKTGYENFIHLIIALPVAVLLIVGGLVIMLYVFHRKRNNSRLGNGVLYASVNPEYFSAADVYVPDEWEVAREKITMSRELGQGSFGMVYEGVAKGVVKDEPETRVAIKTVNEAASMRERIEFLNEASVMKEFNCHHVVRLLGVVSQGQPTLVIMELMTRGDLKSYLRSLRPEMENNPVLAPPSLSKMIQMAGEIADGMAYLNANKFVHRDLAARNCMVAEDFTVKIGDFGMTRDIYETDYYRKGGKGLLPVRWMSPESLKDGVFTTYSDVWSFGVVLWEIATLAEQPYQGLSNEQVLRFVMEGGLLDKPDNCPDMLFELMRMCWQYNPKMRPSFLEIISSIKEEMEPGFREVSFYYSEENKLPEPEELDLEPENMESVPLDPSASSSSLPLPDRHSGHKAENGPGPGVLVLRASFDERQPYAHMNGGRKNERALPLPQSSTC
Assay: Free Choice Kinase Assay Projects, Flashplate
Conditions: compound 10.0 µM; ATP 1 µM
Reported Metric: residual activity (%)

1) Fc1ccc(-c2[nH]c(SCc3ccccc3)nc2-c2ccnc(F)c2)cc1 :: 41
2) Fc1ccc(-c2[nH]c(SCc3ccccc3)nc2-c2ccnc(Cl)c2)cc1 :: 42
3) Fc1ccc(-c2[nH]c(/C=C/c3ccccc3)nc2-c2ccncc2)cc1 :: 16
4) Fc1ccc(-c2[nH]c(SCc3ccccc3)nc2-c2ccncc2)cc1 :: 72
5) CSc1ccc(CSc2nc(-c3ccncc3)c(-c3ccc(F)cc3)[nH]2)cc1 :: 23

###

Target: MET (human)
Assay: Free Choice Kinase Assay Projects, Flashplate
Settings: compound 10.0 µM; ATP 0.3 µM
Quick reference for residual activity among some compounds
Reported Metric: residual activity (%)

1. Fc1ccc(-c2[nH]c(SCc3ccccc3)nc2-c2ccnc(F)c2)cc1 :: 76
2. Oc1ccccc1CSc1nc(-c2ccncc2)c(-c2ccc(F)cc2)[nH]1 :: 71
3. CSc1nc(-c2ccnc(NC(C)=O)c2)c(-c2ccc(F)cc2)n1C :: 79
4. CSc1ccc(CSc2nc(-c3ccncc3)c(-c3ccc(Br)cc3)[nH]2)cc1 :: 54
5. CSc1nc(-c2ccnc(NC(=O)C3CC3)c2)c(-c2ccc(F)cc2)n1C :: 81
6. Fc1ccc(-c2[nH]c(SCCc3ccccc3)nc2-c2ccncc2)cc1 :: 66
7. On1c(CCc2ccccc2)nc(-c2ccncc2)c1-c1ccc(F)cc1 :: 44
8. N#CCSc1nc(-c2ccncc2)c(-c2ccc(F)cc2)[nH]1 :: 45
9. On1c(/C=C/c2ccccc2)nc(-c2ccncc2)c1-c1ccc(F)cc1 :: 23
10. CSc1nc(-c2ccnc(N(C(=O)C3CC3)C(=O)C3CC3)c2)c(-c2ccc(F)cc2)n1C :: 99
11. Fc1ccc(-c2[nH]c(SCc3cccc4ccccc34)nc2-c2ccncc2)cc1 :: 40
12. Fc1ccc(-c2[nH]c(SCc3ccccc3)nc2-c2ccnc(Cl)c2)cc1 :: 53
13. CSc1nc(-c2ccnc(F)c2)c(-c2ccc(F)cc2)[nH]1 :: 91
14. Fc1ccc(-c2[nH]c(/C=C/c3ccccc3)nc2-c2ccncc2)cc1 :: 25
15. CSc1nc(-c2ccnc(NC(=O)C3CCCC3)c2)c(-c2ccc(F)cc2)n1C :: 91
16. CSc1ccc(CSc2nc(-c3ccncc3)c(-c3ccc(F)cc3)[nH]2)cc1 :: 51
17. Oc1cccc(CSc2nc(-c3ccncc3)c(-c3ccc(F)cc3)[nH]2)c1 :: 58
18. Oc1ccc(CSc2nc(-c3ccncc3)c(-c3ccc(F)cc3)[nH]2)cc1 :: 78
19. CSc1ccccc1CSc1nc(-c2ccncc2)c(-c2ccc(F)cc2)[nH]1 :: 76
20. CC(Nc1cc(-c2nc(SCc3ccccc3)[nH]c2-c2ccc(F)cc2)ccn1)c1ccccc1 (stereo unspecified) :: 43
21. Fc1ccc(-c2[nH]c(SCc3ccccc3)nc2-c2ccncc2)cc1 :: 89

###

Target: MAPK14 (human)
Test: Free Choice Kinase Assay Projects, Flashplate
Conditions: compound 10.0 µM; ATP 1 µM
Parameter threshold = 4%. Response is 1 when residual activity meets or exceeds it, else -1.

1) Fc1ccc(-c2[nH]c(SCc3ccccc3)nc2-c2ccncc2)cc1 :: -1
2) CSc1nc(-c2ccnc(NC(C)=O)c2)c(-c2ccc(F)cc2)n1C :: -1
3) CSc1nc(-c2ccnc(NC(=O)C3CC3)c2)c(-c2ccc(F)cc2)n1C :: -1
4) CSc1ccc(CSc2nc(-c3ccncc3)c(-c3ccc(F)cc3)[nH]2)cc1 :: 1
5) N#CCSc1nc(-c2ccncc2)c(-c2ccc(F)cc2)[nH]1 :: -1
6) On1c(CCc2ccccc2)nc(-c2ccncc2)c1-c1ccc(F)cc1 :: -1
7) CC(Nc1cc(-c2nc(SCc3ccccc3)[nH]c2-c2ccc(F)cc2)ccn1)c1ccccc1 (stereo not given) :: -1
8) Fc1ccc(-c2[nH]c(SCCc3ccccc3)nc2-c2ccncc2)cc1 :: 1

###

Target: TEK (human)
Assay: Free Choice Kinase Assay Projects, Flashplate
Conditions: compound 10.0 µM; ATP 1 µM
Reported residual activity values for a set of compounds
Reported Metric: residual activity (%)

1. COc1ccc(C(=O)Nc2cc(-c3nc(SC)n(C)c3-c3ccc(F)cc3)ccn2)cc1 :: 21
2. Fc1ccc(-c2[nH]c(/C=C/c3ccccc3)nc2-c2ccncc2)cc1 :: 6
3. Fc1ccc(-c2[nH]c(SCC3CCCCC3)nc2-c2ccncc2)cc1 :: 36
4. Fc1ccc(-c2[nH]c(SCc3ccccc3)nc2-c2ccnc(F)c2)cc1 :: 34
5. Fc1ccc(-c2[nH]c(CCc3ccccc3)nc2-c2ccncc2)cc1 :: 9

###

Target: ERBB2 (human) (UniProt P04626)
Sequence (P04626 whole entry, looked up): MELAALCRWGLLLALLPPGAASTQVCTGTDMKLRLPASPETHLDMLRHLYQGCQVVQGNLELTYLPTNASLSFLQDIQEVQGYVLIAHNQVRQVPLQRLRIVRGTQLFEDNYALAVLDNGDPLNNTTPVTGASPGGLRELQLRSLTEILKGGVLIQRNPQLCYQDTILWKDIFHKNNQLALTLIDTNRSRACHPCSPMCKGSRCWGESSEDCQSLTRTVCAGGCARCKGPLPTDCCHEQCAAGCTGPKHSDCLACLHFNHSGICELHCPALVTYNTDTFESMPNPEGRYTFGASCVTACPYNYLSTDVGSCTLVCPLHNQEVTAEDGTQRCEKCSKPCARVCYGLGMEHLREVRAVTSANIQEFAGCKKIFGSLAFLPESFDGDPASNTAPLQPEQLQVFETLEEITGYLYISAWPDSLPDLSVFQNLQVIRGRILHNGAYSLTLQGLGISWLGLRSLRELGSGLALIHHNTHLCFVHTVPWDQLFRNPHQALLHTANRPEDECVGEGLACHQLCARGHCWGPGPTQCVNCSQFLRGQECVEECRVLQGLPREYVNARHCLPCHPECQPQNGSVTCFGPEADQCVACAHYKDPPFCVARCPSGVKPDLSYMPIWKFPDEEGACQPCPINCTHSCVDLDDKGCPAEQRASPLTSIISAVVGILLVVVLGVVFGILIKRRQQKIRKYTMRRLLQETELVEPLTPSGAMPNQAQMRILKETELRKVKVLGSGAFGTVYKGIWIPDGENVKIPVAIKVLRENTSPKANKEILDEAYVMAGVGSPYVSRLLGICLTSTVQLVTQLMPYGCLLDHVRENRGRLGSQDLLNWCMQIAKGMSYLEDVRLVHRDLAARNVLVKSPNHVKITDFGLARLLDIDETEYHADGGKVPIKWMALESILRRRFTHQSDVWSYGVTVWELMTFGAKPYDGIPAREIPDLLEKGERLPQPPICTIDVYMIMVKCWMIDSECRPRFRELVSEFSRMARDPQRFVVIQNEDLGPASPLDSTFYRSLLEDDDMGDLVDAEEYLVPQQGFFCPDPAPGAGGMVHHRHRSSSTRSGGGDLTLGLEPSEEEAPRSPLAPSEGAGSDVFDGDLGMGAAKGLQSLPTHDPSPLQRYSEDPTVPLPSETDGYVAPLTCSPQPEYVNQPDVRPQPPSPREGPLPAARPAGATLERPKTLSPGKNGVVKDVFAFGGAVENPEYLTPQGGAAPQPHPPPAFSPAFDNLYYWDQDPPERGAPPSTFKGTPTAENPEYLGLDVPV
Assay: Free Choice Kinase Assay Projects, Flashplate
Conditions: compound 10.0 µM; ATP 1 µM
residual activity under 30% gets Condition met, anything at or over 30% gets Condition not met.

1. Fc1ccc(-c2[nH]c(SCC3CCCCC3)nc2-c2ccncc2)cc1 :: Condition not met
2. Fc1ccc(-c2[nH]c(SCc3cccc4ccccc34)nc2-c2ccncc2)cc1 :: Condition met
3. On1c(/C=C/c2ccccc2)nc(-c2ccncc2)c1-c1ccc(F)cc1 :: Condition met
4. CSc1ccc(CSc2nc(-c3ccncc3)c(-c3ccc(Br)cc3)[nH]2)cc1 :: Condition not met
5. CSc1ccccc1CSc1nc(-c2ccncc2)c(-c2ccc(F)cc2)[nH]1 :: Condition met

###

Some compounds, each annotated with its measured residual activity.
Biological target: MAP3K8 (human) (UniProt P41279)
Sequence (P41279 whole entry, looked up): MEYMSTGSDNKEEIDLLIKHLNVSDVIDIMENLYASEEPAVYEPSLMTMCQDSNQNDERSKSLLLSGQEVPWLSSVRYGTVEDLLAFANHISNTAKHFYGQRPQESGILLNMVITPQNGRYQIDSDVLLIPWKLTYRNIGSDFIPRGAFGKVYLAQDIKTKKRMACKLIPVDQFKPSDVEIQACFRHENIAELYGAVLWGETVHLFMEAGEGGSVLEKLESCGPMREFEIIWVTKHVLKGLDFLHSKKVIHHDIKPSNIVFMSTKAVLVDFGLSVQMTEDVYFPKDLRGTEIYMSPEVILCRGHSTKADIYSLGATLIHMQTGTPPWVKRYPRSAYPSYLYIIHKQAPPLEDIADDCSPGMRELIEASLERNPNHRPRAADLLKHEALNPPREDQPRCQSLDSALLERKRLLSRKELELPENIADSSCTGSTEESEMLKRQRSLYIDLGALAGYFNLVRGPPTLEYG
Assay: Free Choice Kinase Assay Projects, Flashplate
Conditions: compound 10.0 µM; ATP 3 µM
Reported Metric: residual activity (%)

1) CSc1nc(-c2ccnc(N(C(=O)C3CC3)C(=O)C3CC3)c2)c(-c2ccc(F)cc2)n1C :: 106
2) Fc1ccc(-c2[nH]c(SCc3ccccc3)nc2-c2ccnc(F)c2)cc1 :: 106
3) Oc1cccc(CSc2nc(-c3ccncc3)c(-c3ccc(F)cc3)[nH]2)c1 :: 91
4) Oc1ccccc1CSc1nc(-c2ccncc2)c(-c2ccc(F)cc2)[nH]1 :: 91
5) COc1ccc(C(=O)Nc2cc(-c3nc(SC)n(C)c3-c3ccc(F)cc3)ccn2)cc1 :: 87
6) CSc1ccccc1CSc1nc(-c2ccncc2)c(-c2ccc(F)cc2)[nH]1 :: 85
7) Fc1ccc(-c2[nH]c(/C=C/c3ccccc3)nc2-c2ccncc2)cc1 :: 35
8) Fc1ccc(-c2[nH]c(SCCCc3ccccc3)nc2-c2ccncc2)cc1 :: 85
9) CSc1ccc(CSc2nc(-c3ccncc3)c(-c3ccc(F)cc3)[nH]2)cc1 :: 75
10) Fc1ccc(-c2[nH]c(SCC3CCCCC3)nc2-c2ccncc2)cc1 :: 73
11) Fc1ccc(-c2[nH]c(SCc3cccc4ccccc34)nc2-c2ccncc2)cc1 :: 46
12) Fc1ccc(-c2[nH]c(SCc3ccccc3)nc2-c2ccncc2)cc1 :: 76
13) Fc1ccc(-c2[nH]c(SCc3ccccc3)nc2-c2ccnc(Cl)c2)cc1 :: 58
14) CC(Nc1cc(-c2nc(SCc3ccccc3)[nH]c2-c2ccc(F)cc2)ccn1)c1ccccc1 (stereo unspecified) :: 50
15) Oc1ccc(CSc2nc(-c3ccncc3)c(-c3ccc(F)cc3)[nH]2)cc1 :: 96
16) CSc1nc(-c2ccnc(F)c2)c(-c2ccc(F)cc2)[nH]1 :: 105
17) CSc1ccc(CSc2nc(-c3ccncc3)c(-c3ccc(Br)cc3)[nH]2)cc1 :: 79
18) CSc1nc(-c2ccnc(NC(C)=O)c2)c(-c2ccc(F)cc2)n1C :: 74
19) Fc1ccc(-c2[nH]c(SCCc3ccccc3)nc2-c2ccncc2)cc1 :: 69
20) N#CCSc1nc(-c2ccncc2)c(-c2ccc(F)cc2)[nH]1 :: 101
21) CSc1nc(-c2ccnc(NC(=O)C3CCCC3)c2)c(-c2ccc(F)cc2)n1C :: 88
